Biological target: Adenosine receptor A1 (Homo sapiens)
Sequence (P30542 whole entry): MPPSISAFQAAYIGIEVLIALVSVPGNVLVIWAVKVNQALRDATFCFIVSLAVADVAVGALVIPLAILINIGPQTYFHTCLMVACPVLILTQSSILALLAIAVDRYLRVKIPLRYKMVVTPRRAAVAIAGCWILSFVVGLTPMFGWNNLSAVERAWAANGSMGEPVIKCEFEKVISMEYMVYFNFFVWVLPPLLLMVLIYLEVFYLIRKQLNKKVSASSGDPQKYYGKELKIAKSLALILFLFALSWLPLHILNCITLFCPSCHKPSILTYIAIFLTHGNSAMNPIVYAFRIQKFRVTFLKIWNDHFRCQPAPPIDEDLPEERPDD
Assay: Modulation of human adenosine A1 receptor expressed in CHO-K1 cells assessed as allosteric effect on [125I]ABA dissociation
hey, just use YES if measured EC50 is less than 7 µM, otherwise NO

item_smiles=CCOC(=O)c1nn(-c2ccc(C(C)(C)C)cc2)c(=O)c2c(N)scc12 label_class=NO
item_smiles=CCOC(=O)c1nn(-c2ccc(C(F)(F)F)cc2)c(=O)c2c(N)scc12 label_class=NO
item_smiles=CCOC(=O)c1nn(-c2cccc(Cl)c2)c(=O)c2c(N)scc12 label_class=YES
item_smiles=CCOC(=O)c1nn(-c2ccc(OC)cc2)c(=O)c2c(N)scc12 label_class=YES
item_smiles=Nc1scc2c(C(=O)O)nn(-c3ccccc3)c(=O)c12 label_class=NO

Proceed to the following item.
Exercise: Is EC50 of `CCOC(=O)c1nn(-c2ccc(OS(=O)(=O)C(F)(F)F)cc2)c(=O)c2c(N)scc12` strictly below 7 µM?
Solution: YES

###

Biological target: Adenosine receptor A1 (Homo sapiens)
Assay: Antagonist activity at human adenosine A1 receptor expressed in FlpIn-CHO cells assessed as inhibition of R-PIA-mediated ERK1/2 phosphorylation
Format: functional, cell-based
Conditions: read-out: pA2 (converted)
observation-type: Kb (µM)
Use µM as the unit, but write only the number.

Take a look at these entries with their results.
item_smiles=CCOC(=O)c1nn(-c2cccc(Cl)c2)c(=O)c2c(N)scc12 observed_value=0.002
item_smiles=CCOC(=O)c1nn(-c2ccc(O)cc2)c(=O)c2c(N)scc12 observed_value=0.0398
item_smiles=CCOC(=O)c1nn(-c2ccccc2)c(=O)c2c(N)scc12 observed_value=0.0158
item_smiles=CCOC(=O)c1nn(-c2ccc(OC)cc2)c(=O)c2c(N)scc12 observed_value=0.2
item_smiles=CCOC(=O)c1nn(-c2ccc(OC(C)=O)cc2)c(=O)c2c(N)scc12 observed_value=0.0398

Could you now consider this next compound?
Exercise: Recorded Kb for `CCOC(=O)c1nn(-c2ccc(I)cc2)c(=O)c2c(N)scc12` , please?
Solution: 0.0794

###

Target: Adenosine receptor A1 (Homo sapiens) (UniProt P30542)
Assay: Displacement of [3H]CPX from human adenosine A1 receptor expressed in CHO-K1 cells at 50 uM
Type: cell-based
Returns one of Yes or No; Yes when inhibition is >= 30%.

Field: example entries. Status: answers known.
item_smiles=CCOC(=O)c1nn(-c2cccc(C(F)(F)F)c2)c(=O)c2c(N)scc12 label_class=Yes
item_smiles=CCOC(=O)c1nn(-c2ccc(C(F)(F)F)cc2)c(=O)c2c(N)scc12 label_class=Yes
item_smiles=CCOC(=O)c1nn(-c2cccc(Cl)c2)c(=O)c2c(N)scc12 label_class=Yes
item_smiles=Cc1c(C(=O)Nc2ccccc2)sc(N)c1C(N)=O label_class=Yes
item_smiles=CCOC(=O)c1nn(-c2ccc(O)cc2)c(=O)c2c(N)scc12 label_class=Yes
item_smiles=CCOC(=O)c1nn(-c2ccc(OS(=O)(=O)C(F)(F)F)cc2)c(=O)c2c(N)scc12 label_class=No

Exercise: Threshold query (inhibition >= 30%) on `CCOC(=O)c1nn(-c2ccc(C(C)(C)C)cc2)c(=O)c2c(N)scc12`
Solution: No

###

Target: Adenosine receptor A1 (Homo sapiens) (UniProt P30542)
Experiment: Modulation of human adenosine A1 receptor expressed in CHO-K1 cells assessed as stabilization of [125I]ABA-receptor-G protein ternary complex at 50 uM by dissociation kinetic assay
Type: cell-based
observation-type: Activity

item_smiles=NC(=O)c1ncccc1C(=O)O observed_value="< 5%"
item_smiles=Cc1sc(N)c(C(=O)c2cccs2)c1C observed_value=33.2%
item_smiles=CCOC(=O)c1cnn(C)c1N observed_value="< 5%"

Exercise: Recorded Activity for `Nc1cc(Cl)ccc1C(=O)N1CCSCC1` , please?
Solution: 6%

Exercise: Next: `Nc1ccccc1C(=O)N/N=C/c1ccc2c(c1)OCO2`
Solution: < 5%

###

Target: UniProt P30542
Sequence (whole entry): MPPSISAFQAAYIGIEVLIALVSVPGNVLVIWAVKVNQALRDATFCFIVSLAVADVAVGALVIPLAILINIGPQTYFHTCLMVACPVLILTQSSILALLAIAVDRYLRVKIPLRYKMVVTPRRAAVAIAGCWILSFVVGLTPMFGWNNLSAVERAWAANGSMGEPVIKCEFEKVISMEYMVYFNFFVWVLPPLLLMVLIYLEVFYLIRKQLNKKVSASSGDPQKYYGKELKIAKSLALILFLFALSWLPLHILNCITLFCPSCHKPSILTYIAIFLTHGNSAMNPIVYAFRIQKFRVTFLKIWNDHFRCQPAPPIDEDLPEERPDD
Assay: Modulation of human adenosine A1 receptor expressed in CHO-K1 cells assessed as stabilization of [125I]ABA-receptor-G protein ternary complex at 50 uM by dissociation kinetic assay
Format: cell-based
observation-type: Activity (%)
Use % as the unit, but write only the number.

item_smiles=CCOC(=O)c1nn(-c2ccc(C(F)(F)F)cc2)c(=O)c2c(N)scc12 observed_value=81
item_smiles=CCOC(=O)c1cnc(SCC(=O)c2cc(Cl)c(Cl)s2)nc1N observed_value=11
item_smiles=CCOC(=O)c1nn(-c2ccc([N+](=O)[O-])cc2)c(=O)c2c(N)scc12 observed_value=19.6
item_smiles=CCOC(=O)c1nn(-c2ccccc2)c(=O)c2c(N)scc12 observed_value=60.4

Exercise: Recorded Activity for `CCOC(=O)c1nn(-c2ccc(OC(C)=O)cc2)c(=O)c2c(N)scc12` , please?
Solution: 66.6

Exercise: Next: `CCOC(=O)c1nn(-c2ccc(O)cc2)c(=O)c2c(N)scc12`
Solution: 75.9

Exercise: Next: `CCOC(=O)c1nn(-c2cccc(C(F)(F)F)c2)c(=O)c2c(N)scc12`
Solution: 66.1

Exercise: Next: `CCOC(=O)c1nn(-c2ccc(OC)cc2)c(=O)c2c(N)scc12`
Solution: 68.6

Exercise: Next: `CCOC(=O)c1nn(-c2ccc(I)cc2)c(=O)c2c(N)scc12`
Solution: 65.4

Exercise: Next: `CCOC(=O)c1nn(-c2ccc(C(C)(C)C)cc2)c(=O)c2c(N)scc12`
Solution: 59

Exercise: Next: `COc1ccc(-n2nc(C(=O)OC(C)(C)C)c3csc(N)c3c2=O)cc1`
Solution: 5

Exercise: Next: `CCOC(=O)c1nn(-c2cccc(Cl)c2)c(=O)c2c(N)scc12`
Solution: 69.2

###

Biological target: UniProt P30542
Sequence (P30542 whole entry): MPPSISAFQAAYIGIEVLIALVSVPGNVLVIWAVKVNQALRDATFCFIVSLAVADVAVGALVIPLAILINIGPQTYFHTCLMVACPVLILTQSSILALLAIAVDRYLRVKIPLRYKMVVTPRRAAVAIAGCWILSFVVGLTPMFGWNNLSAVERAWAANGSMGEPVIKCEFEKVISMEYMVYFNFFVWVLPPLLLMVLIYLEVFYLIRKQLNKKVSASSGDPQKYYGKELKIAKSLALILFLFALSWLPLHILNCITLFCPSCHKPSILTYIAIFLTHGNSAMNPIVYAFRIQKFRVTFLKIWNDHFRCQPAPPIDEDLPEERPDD
Test: Modulation of human adenosine A1 receptor expressed in CHO-K1 cells assessed as allosteric effect on [125I]ABA dissociation
hey, just use 1 if measured EC50 is less than 4 µM, otherwise -1

Field: example entries. Status: answers known.
item_smiles=CCOC(=O)c1nn(-c2ccc(O)cc2)c(=O)c2c(N)scc12 label_class=-1
item_smiles=CCOC(=O)c1nn(-c2ccc(I)cc2)c(=O)c2c(N)scc12 label_class=-1
item_smiles=CCOC(=O)c1nn(-c2ccccc2)c(=O)c2c(N)scc12 label_class=-1

Proceed to the following item.
Exercise: Is EC50 of `CCOC(=O)c1nn(-c2cccc(C(F)(F)F)c2)c(=O)c2c(N)scc12` strictly below 4 µM?
Solution: 1

###

Biological target: Adenosine receptor A1 (Homo sapiens) (UniProt P30542)
Sequence (whole entry): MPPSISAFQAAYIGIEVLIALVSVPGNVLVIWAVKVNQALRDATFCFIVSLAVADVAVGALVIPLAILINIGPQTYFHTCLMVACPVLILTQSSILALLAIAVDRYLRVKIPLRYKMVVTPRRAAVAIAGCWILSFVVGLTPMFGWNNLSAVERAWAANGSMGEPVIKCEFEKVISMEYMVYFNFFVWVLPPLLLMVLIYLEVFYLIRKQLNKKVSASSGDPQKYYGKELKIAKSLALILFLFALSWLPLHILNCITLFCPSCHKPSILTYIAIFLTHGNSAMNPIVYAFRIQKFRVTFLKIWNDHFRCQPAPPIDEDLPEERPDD
Assay: Modulation of human adenosine A1 receptor expressed in CHO-K1 cells assessed as stabilization of [125I]ABA-receptor-G protein ternary complex at 50 uM by dissociation kinetic assay
Format: cell-based
Measured Activity values are reported for all entries that follow.

item_smiles=Nc1c2c(=O)cc(-c3ccccc3)[nH]c2nn1-c1ccccc1 observed_value="< 5%"
item_smiles=Nc1ccc(Cl)cc1C(=O)NCc1ccccn1 observed_value="< 5%"
item_smiles=CCOC(=O)c1nn(-c2ccc(OS(=O)(=O)C(F)(F)F)cc2)c(=O)c2c(N)scc12 observed_value=68.5%

Could you now consider this next compound?
Exercise: Recorded Activity for `CCOC(=O)c1c(C)nsc1N` , please?
Solution: < 5%
